Measured values drawn from paper PMC5077133 for this set.

assay-overview: Pharmacokinetic study in mice
Type: in vivo, male CD1 mice
condition-label: male, CD1, mouse, plasma, po, 5 mg/kg, PO 5 mg/kg, male CD1 mice; read-out: Finf (bioavailability)
measurement-type: bioavailability

>>> result("CN(C)c1ccc(/C=C/c2cc(-c3ccc(Br)cc3)cc(-c3ccc(Br)cc3)[o+]2)cc1 [6jc48-1]")
"~2.5%"

###

System: HeLa cells
assay-overview: Cytotoxicity against mammalian cells (MTS assay)
Format: cell-based
# key: entry, value: CC50% (72 h HeLa cells)
measurement-type: CC50% (72 h HeLa cells)

>>> recorded_number("Cc1ccc(-c2cc(/C=C/c3cn(C)c4ccccc34)[o+]c(-c3ccc(C)c(C)c3)c2)cc1C.F[B-](F)(F)F")
0.92
>>> recorded_number("Cc1ccc(-c2cc(/C=C/c3cn(C)c4ccccc34)[o+]c(-c3ccc(C)cc3)c2)cc1.F[B-](F)(F)F")
0.94
>>> recorded_number("CN(C)c1ccc(/C=C/C=C/c2cc(-c3ccccc3)cc(-c3ccccc3)[o+]2)cc1.F[B-](F)(F)F")
0.93
>>> recorded_number("Brc1ccc(-c2cc(/C=C/c3cc4c5c(c3)CCCN5CCC4)[o+]c(-c3ccc(Br)cc3)c2)cc1.F[B-](F)(F)F")
4.43
>>> recorded_number("CCc1ccc(-c2cc(/C=C/c3c[nH]c4ccccc34)[o+]c(-c3ccc(CC)cc3)c2)cc1.F[B-](F)(F)F")
3.29
>>> recorded_number("Cc1ccc(-c2cc(/C=C/c3c[nH]c4ccccc34)[o+]c(-c3ccc(C)cc3)c2)cc1.F[B-](F)(F)F")
1.12
>>> recorded_number("Cn1cc(/C=C/c2cc(-c3ccccc3)cc(-c3ccccc3)[o+]2)c2ccccc21.F[B-](F)(F)F")
1.36
>>> recorded_number("Cn1cc(/C=C/c2cc(-c3ccc(C(C)(C)C)cc3)cc(-c3ccc(C(C)(C)C)cc3)[o+]2)c2ccccc21.F[B-](F)(F)F")
5.68
>>> recorded_number("Cc1ccc(-c2cc(/C=C/c3c[nH]c4ccccc34)[o+]c(-c3ccc(C)c(C)c3)c2)cc1C.F[B-](F)(F)F")
1.35
>>> recorded_number("CN(C)c1ccc(/C=C/c2cc(-c3ccccc3)cc(-c3ccccc3)[o+]2)cc1.F[B-](F)(F)F")
1.31
>>> recorded_number("Cc1cc(/C=C/c2ccc(N(C)C)cc2)cc(C)[o+]1.F[B-](F)(F)F")
18.96
>>> recorded_number("CCc1ccc(-c2cc(/C=C/c3cn(C)c4ccccc34)[o+]c(-c3ccc(CC)cc3)c2)cc1.F[B-](F)(F)F")
1.42
>>> recorded_number("CN(C)c1ccc(/C=C/C=C/c2cc(-c3ccc(Br)cc3)cc(-c3ccc(Br)cc3)[o+]2)cc1.F[B-](F)(F)F")
60.51
>>> recorded_number("Clc1ccc(-c2cc(/C=C/c3cc4c5c(c3)CCCN5CCC4)[o+]c(-c3ccc(Cl)cc3)c2)cc1.F[B-](F)(F)F")
3.09
>>> recorded_number("C(=C\\c1c[nH]c2ccccc12)/c1cc(-c2ccccc2)cc(-c2ccccc2)[o+]1.F[B-](F)(F)F")
2.2

###

target: CYP2D6 (Homo sapiens, UniProt P10635)
Construct: purchased Corning
Sequence (P10635 whole entry): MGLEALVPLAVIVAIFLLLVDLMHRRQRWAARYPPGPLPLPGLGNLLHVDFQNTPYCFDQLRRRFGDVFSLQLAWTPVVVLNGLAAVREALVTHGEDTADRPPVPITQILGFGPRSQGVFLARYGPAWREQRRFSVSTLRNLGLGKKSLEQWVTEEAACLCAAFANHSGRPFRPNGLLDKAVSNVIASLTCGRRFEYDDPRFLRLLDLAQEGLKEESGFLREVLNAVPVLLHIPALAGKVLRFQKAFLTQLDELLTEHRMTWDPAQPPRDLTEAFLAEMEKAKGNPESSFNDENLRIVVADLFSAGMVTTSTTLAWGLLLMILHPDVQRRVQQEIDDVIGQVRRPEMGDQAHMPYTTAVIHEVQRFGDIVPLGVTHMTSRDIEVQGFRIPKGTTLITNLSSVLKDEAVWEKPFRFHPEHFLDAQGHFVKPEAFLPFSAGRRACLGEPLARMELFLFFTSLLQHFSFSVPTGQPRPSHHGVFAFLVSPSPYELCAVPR
assay-overview: Cytochrome P450 inhibition
Format: in vitro ADME
condition-label: recombinant human CYP2D6 (Supersomes), pH 7.4, probe AMMC, IC50 fluorescence, substrate AMMC, read-out: P450 enzyme inhibition IC50 CYP2D6/ AMMC
pIC50: −log10 of the molar value.
measurement-type: pIC50

>>> result("CN(C)c1ccc(/C=C/c2cc(-c3ccc(Br)cc3)cc(-c3ccc(Br)cc3)[o+]2)cc1")
"< 5.00"

###

Test system: E. faecium F118 (VRE)
assay-overview: Antibacterial activity (MIC, broth dilution)
Assay type: cell-based
condition-label: CLSI, in µg/mL
Label MET when Antibacterial activity (MIC) E. faecium F118 (VRE) is at or above 6; otherwise label NOT MET.

>>> class_assignment("CCc1ccc(-c2cc(/C=C/C=C/c3ccc(N(C)C)cc3)[o+]c(-c3ccc(CC)cc3)c2)cc1.F[B-](F)(F)F")
"MET"
>>> class_assignment("Cc1ccc(-c2cc(/C=C/c3cn(C)c4ccccc34)[o+]c(-c3ccc(C)c(C)c3)c2)cc1C.F[B-](F)(F)F")
"NOT MET"
>>> class_assignment("CCc1ccc(-c2cc(/C=C/c3cn(C)c4ccccc34)[o+]c(-c3ccc(CC)cc3)c2)cc1.F[B-](F)(F)F")
"NOT MET"
>>> class_assignment("CCc1ccc(-c2cc(/C=C/c3ccc(N(C)C)cc3)[o+]c(-c3ccc(CC)cc3)c2)cc1.F[B-](F)(F)F")
"NOT MET"
>>> class_assignment("Cc1ccc(-c2cc(/C=C/c3ccc(N(C)C)cc3)[o+]c(-c3ccc(C)cc3)c2)cc1.F[B-](F)(F)F")
"NOT MET"
>>> class_assignment("CN(C)c1ccc(/C=C/C=C/c2cc(-c3ccc(Br)cc3)cc(-c3ccc(Br)cc3)[o+]2)cc1.F[B-](F)(F)F")
"MET"
>>> class_assignment("Cc1ccc(-c2cc(/C=C/c3c[nH]c4ccccc34)[o+]c(-c3ccc(C)c(C)c3)c2)cc1C.F[B-](F)(F)F")
"MET"

###

Tested on: E. cloacae ATCC 13047
assay-overview: Antibacterial activity (MIC, broth dilution)
Assay type: cell-based
condition-label: CLSI
measurement-type: Antibacterial activity (MIC) E. cloacae ATCC 13047

>>> result("CN(C)c1ccc(/C=C/C=C/c2cc(-c3ccc(Cl)cc3)cc(-c3ccc(Cl)cc3)[o+]2)cc1.F[B-](F)(F)F")
"≥ 64 µg/mL"
>>> result("Cc1ccc(-c2cc(/C=C/c3ccc(N(C)C)cc3)[o+]c(-c3ccc(C)cc3)c2)cc1.F[B-](F)(F)F")
"64 µg/mL"
>>> result("CCc1ccc(-c2cc(/C=C/c3cc4c5c(c3)CCCN5CCC4)[o+]c(-c3ccc(CC)cc3)c2)cc1.F[B-](F)(F)F")
"≥ 64 µg/mL"
>>> result("Cc1ccc(-c2cc(/C=C/c3ccc(N(C)C)cc3)[o+]c(-c3ccc(C)c(C)c3)c2)cc1C.F[B-](F)(F)F")
"≥ 64 µg/mL"
>>> result("CCc1ccc(-c2cc(/C=C/c3cn(C)c4ccccc34)[o+]c(-c3ccc(CC)cc3)c2)cc1.F[B-](F)(F)F")
"≥ 64 µg/mL"
>>> result("Cc1ccc(-c2cc(/C=C/c3cc4c5c(c3)CCCN5CCC4)[o+]c(-c3ccc(C)cc3)c2)cc1.F[B-](F)(F)F")
"64 µg/mL"
>>> result("Cc1cc(/C=C/C=C/c2ccc(N(C)C)cc2)cc(C)[o+]1.F[B-](F)(F)F")
"≥ 64 µg/mL"

###

assay-overview: Lipid II binding by Surface Plasmon Resonance
condition-label: SPR, immobilized 3-Lipid II, 25°C
pKd: −log10 of the molar value.
# key: entry, value: pKd
measurement-type: pKd

>>> recorded_number("CN(C)c1ccc(/C=C/C=C/c2cc(-c3ccccc3)cc(-c3ccccc3)[o+]2)cc1.F[B-](F)(F)F")
4.21
>>> recorded_number("Cc1ccc(-c2cc(/C=C/C=C/c3ccc(N(C)C)cc3)[o+]c(-c3ccc(C)cc3)c2)cc1.F[B-](F)(F)F")
5.02
>>> recorded_number("CN(C)c1ccc(/C=C/c2cc(-c3ccc(Br)cc3)cc(-c3ccc(Br)cc3)[o+]2)cc1")
6.82
>>> recorded_number("CN(C)c1ccc(/C=C/C=C/c2cc(-c3ccc(Br)cc3)cc(-c3ccc(Br)cc3)[o+]2)cc1.F[B-](F)(F)F")
5.94
>>> recorded_number("Cc1ccc(-c2cc(/C=C/c3ccc(N(C)C)cc3)[o+]c(-c3ccc(C)cc3)c2)cc1.F[B-](F)(F)F")
5.04
>>> recorded_number("Cc1ccc(-c2cc(/C=C/c3ccc(N(C)C)cc3)[o+]c(-c3ccc(C)c(C)c3)c2)cc1C.F[B-](F)(F)F")
5.72
>>> recorded_number("C(=C\\c1c[nH]c2ccccc12)/c1cc(-c2ccccc2)cc(-c2ccccc2)[o+]1.F[B-](F)(F)F")
6.77
>>> recorded_number("Clc1ccc(-c2cc(/C=C/c3cc4c5c(c3)CCCN5CCC4)[o+]c(-c3ccc(Cl)cc3)c2)cc1.F[B-](F)(F)F")
4.52
>>> recorded_number("Cc1ccc(-c2cc(/C=C/c3c[nH]c4ccccc34)[o+]c(-c3ccc(C)c(C)c3)c2)cc1C.F[B-](F)(F)F")
4.55
>>> recorded_number("Cn1cc(/C=C/c2cc(-c3ccccc3)cc(-c3ccccc3)[o+]2)c2ccccc21.F[B-](F)(F)F")
5.54
>>> recorded_number("CCc1ccc(-c2cc(/C=C/C=C/c3ccc(N(C)C)cc3)[o+]c(-c3ccc(CC)cc3)c2)cc1.F[B-](F)(F)F")
4.62
>>> recorded_number("CN(C)c1ccc(/C=C/c2cc(-c3ccc(C(C)(C)C)cc3)cc(-c3ccc(C(C)(C)C)cc3)[o+]2)cc1.F[B-](F)(F)F")
4.42
